test: Simulated Gastric Fluid (SGF) Assay
Type: in vitro ADME
experimentalConditions: pig, simulated gastric fluid (SGF) with porcine pepsin, pH 2; Table 4-C, t1/2
Bridge positions count the residues as written; N and C are the ends. Square brackets hold non-standard residues; d marks the D form. Peptide text beside a SMILES is read from it. NMeR = CN[C@@H](CCCNC(=N)N)C(=O)O; Pen = CC(C)(S)[C@H](N)C(=O)O
This listing pairs compounds with measured half-life at 20 μM.

- compound: "CC(=O)N[C@@H]1C(=O)N(C)[C@@H](CCCNC(=N)N)C(=O)N[C@@H](CO)C(=O)N[C@@H](CC(=O)O)C(=O)N[C@@H]([C@@H](C)O)C(=O)N[C@@H](CC(C)C)C(=O)N[C@H](C(=O)N[C@@H](Cc2c[nH]c3ccccc23)C(=O)N[C@H](CCCCN)C(N)=O)C(C)(C)SSC1(C)C [compound 208, Ac-Pen-N-Me-R-S-D-T-L-Pen-W-k-NH2] (Ac-[Pen][NMeR]SDTL[Pen]W[dK]-NH2; disulfide 1-7)"
  half-life at 20 μM: "> 6 h"
- compound: "CC(=O)N[C@H]1CSSC[C@@H](C(=O)NCC(=O)N[C@@H](CCC(=O)O)C(=O)N[C@@H](CCCCN)C(=O)O)NC(=O)[C@H](CC(C)C)NC(=O)[C@H]([C@@H](C)O)NC(=O)[C@H](CC(=O)O)NC(=O)[C@H](CO)NC(=O)[C@H](CCCNC(=N)N)N(C)C1=O [compound 199, Ac-C-N-Me-R-S-D-T-L-C-G-E-K-OH] (Ac-C[NMeR]SDTLCGEK-OH; disulfide 1-7)"
  half-life at 20 μM: "> 6 h"

Recorded values, source patent US9809623B2.
